target: human GcgR (Homo sapiens); experiment: Functional cAMP activity in the presence of 1% HSA; assay type: cell-based; conditions: read-out: cAMP Rel EC50, hGcgR
Sequence (P47871 26-477): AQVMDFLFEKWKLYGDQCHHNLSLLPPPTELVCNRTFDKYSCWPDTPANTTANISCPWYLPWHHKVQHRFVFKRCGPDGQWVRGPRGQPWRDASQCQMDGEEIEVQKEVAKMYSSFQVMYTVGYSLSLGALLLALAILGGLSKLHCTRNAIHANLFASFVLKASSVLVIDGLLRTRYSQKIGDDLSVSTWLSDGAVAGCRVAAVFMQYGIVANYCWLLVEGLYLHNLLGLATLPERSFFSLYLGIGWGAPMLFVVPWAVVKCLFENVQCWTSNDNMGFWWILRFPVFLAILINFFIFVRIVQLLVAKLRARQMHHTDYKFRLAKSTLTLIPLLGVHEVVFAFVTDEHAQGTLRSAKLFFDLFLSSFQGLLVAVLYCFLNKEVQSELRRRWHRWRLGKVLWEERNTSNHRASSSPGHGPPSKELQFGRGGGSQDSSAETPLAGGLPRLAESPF
Starred links: 1 amine or outer side, 2 acyl side, 3 side chain; linkers in the order of their positions; H or OH if unused. Non-standard residues stand in square brackets, D forms with d. Groups on a side chain read outwards from the residue. No end group written: not given here. *: point of attachment. C20 diacid = O=C(O)CCCCCCCCCCCCCCCCCCC(=O)*; C18 diacid = O=C(O)CCCCCCCCCCCCCCCCC(=O)*; αMePhe(2-F) = C[C@](N)(Cc1ccccc1F)C(=O)O; γGlu = O=C(O)[C@H](CCC(=O)[*:2])N[*:1]; αMe4Pal = C[C@](N)(Cc1ccncc1)C(=O)O; αMeY = C[C@](N)(Cc1ccc(O)cc1)C(=O)O; 4Pal = N[C@@H](Cc1ccncc1)C(=O)O; αMeL = CC(C)C[C@](C)(N)C(=O)O; αMeS = C[C@](N)(CO)C(=O)O; Orn = NCCC[C@H](N)C(=O)O; AEEA = NCCOCCOCC(=O)O; Aib = CC(C)(N)C(=O)O
Reported pEC50 is given for each of the following substances.
pEC50 here is simply -log10 of the concentration when that concentration is written in mol/L.

Below are worked cases with known answers.
H-Y[Aib]QGTFTSDFS[Orn][αMeL]LDKK([AEEA-AEEA-γGlu-C18 diacid])AQ[Aib]AFIEYLLE[dA]GPSSGHPPPSGS-NH2 [Example 253] | 6.02
H-Y[Aib]QGT[αMePhe(2-F)]TSD[4Pal][αMeS]I[αMeL]LD[Orn]K([AEEA-γGlu-γGlu-C18 diacid])AQ[αMe4Pal]EFI[dE][αMeY]LIEGGPSSGAPPPSGGGE-NH2 [Example 1180] | 6.69
H-Y[Aib]QGTFTSDFS[Orn][αMeL]LDKK([AEEA-AEEA-γGlu-C18 diacid])AQ[Aib]AFIEYLLE[Aib]GESSGAPPPSGT-NH2 [Example 180] | 5.88
H-Y[Aib]QGT[αMePhe(2-F)]TSDYSKLLDKIAQK([AEEA-γGlu-C20 diacid])AFIEYLIEGGPSSGAPPPSGE-NH2 [Example 356] | 5.57
H-Y[Aib]QGTFTSD[4Pal]SK[αMeL]LDKK([AEEA-γGlu-C18 diacid])AQ[αMe4Pal]AFIE[αMe4Pal]LIE[Aib]GPSSGAPPPSGS-NH2 [Example 916] | 6.80
Y[Aib]QGT[αMePhe(2-F)]TSD[4Pal][αMeS]I[αMeL]LD[Orn]K([γGlu-γGlu-C18 diacid])AA[Aib]EFI[dE][αMeY]LIEGGPSSGEPPPSGGGE-NH2 [Example 748] | 6.81

Query pEC50 on human GcgR (Homo sapiens) for H-Y[Aib]QGTFTSD[4Pal]SQ[αMeL]LD[Orn]K([AEEA-γGlu-C18 diacid])AQ[αMe4Pal]AFIE[αMeY]LIE[Aib]GPSSGEPPPSGSEE-NH2 [Example 1097]
6.12

Query pEC50 on human GcgR (Homo sapiens) for H-Y[Aib]QGT[αMePhe(2-F)]TSD[4Pal][αMeS]ILLD[Orn]K([γGlu-γGlu-C18 diacid])AQ[Aib][Orn]FI[dE]YLIEGGPSSGEPPPSGTGE-NH2 [Example 548]
6.53

Query pEC50 on human GcgR (Homo sapiens) for H-Y[Aib]QGTFTSDYSI[αMeL]LD[Orn]QAAK([AEEA-AEEA-γGlu-C20 diacid])QFVEWLLA[Aib]GPSSGEPPPSEG-NH2 [Example 328]
5.69

Query pEC50 on human GcgR (Homo sapiens) for H-Y[Aib]QGTFTSD[4Pal]SQ[αMeL]LDKK([γGlu-γGlu-C18 diacid])AQ[αMe4Pal]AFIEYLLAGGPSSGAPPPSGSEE-NH2 [Example 1036]
6.45

Query pEC50 on human GcgR (Homo sapiens) for H-Y[Aib]QGTFTSD[4Pal]SQ[αMeL]LD[Orn]K([AEEA-γGlu-C18 diacid])AQ[αMe4Pal]AFIE[αMeY]LIEGGPSSGAPPPSGS-NH2 [Example 849]
5.94

Query pEC50 on human GcgR (Homo sapiens) for Y[Aib]QGT[αMePhe(2-F)]TSD[4Pal][αMeS]I[αMeL]LD[Orn][Orn]([AEEA-γGlu-C18 diacid])AQ[αMe4Pal]EFI[dE][αMeY]LVEGGPSSGAPPPSGS-NH2 [Example 1210]
6.54

Query pEC50 on human GcgR (Homo sapiens) for Y[Aib]QGTFTSD[4Pal]S[Orn][αMeL]LD[Orn]K([γGlu-γGlu-C18 diacid])AQ[αMe4Pal]QFIE[αMeY]LIEGGPSSGAPPPSGSEE-NH2 [Example 972]
6.18

Query pEC50 on human GcgR (Homo sapiens) for Y[Aib]QGT[αMePhe(2-F)]TSD[4Pal][αMeS]I[αMeL]LD[Orn]K([γGlu-γGlu-C18 diacid])AQ[Aib][Orn]FI[dE][αMeY]LAEGGPSSGEPPPSGTEE-NH2 [Example 571]
6.61

Query pEC50 on human GcgR (Homo sapiens) for Y[Aib]QGT[αMePhe(2-F)]TSD[4Pal][αMeS]ILLD[Orn]K([γGlu-γGlu-C18 diacid])AQ[Aib][Orn]FI[dE]YLIEGGPSSGEPPPEGGEE-NH2 [Example 605]
6.45

Query pEC50 on human GcgR (Homo sapiens) for H-Y[Aib]QGTFTSDFS[Orn][αMeL]LDKK([AEEA-γGlu-C18 diacid])AQ[Aib]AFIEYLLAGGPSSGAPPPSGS[AEEA]-NH2 [Example 89]
6.04

Query pEC50 on human GcgR (Homo sapiens) for H-Y[Aib]QGTFTSDYSI[αMeL]LDKQAAK([AEEA-AEEA-γGlu-C20 diacid])QFVEWLIA[Aib]GPSSGEPPPAEG-NH2 [Example 334]
5.68

Query pEC50 on human GcgR (Homo sapiens) for H-Y[Aib]QGT[αMePhe(2-F)]TSD[4Pal]SI[αMeL]LD[Orn]K([γGlu-γGlu-C18 diacid])AQ[αMe4Pal][Orn]FI[dE][αMeY]LIEGGPSSGEPPPEEG-NH2 [Example 681]
6.98

Query pEC50 on human GcgR (Homo sapiens) for H-Y[Aib]QGTFTSD[4Pal]SQ[αMeL]LDKK([AEEA-γGlu-C18 diacid])AQ[αMe4Pal]AFIE[αMe4Pal]LIE[Aib]GPSSGAPPPSGTGE-NH2 [Example 1117]
6.45

Query pEC50 on human GcgR (Homo sapiens) for H-Y[Aib]QGT[αMePhe(2-F)]TSD[4Pal][αMeS]I[αMeL]LD[Orn]K([γGlu-γGlu-C18 diacid])AQ[Aib][Orn]FI[dE][αMeY]LQEGGPSSGEPPPSGTEE-NH2 [Example 572]
6.48

Query pEC50 on human GcgR (Homo sapiens) for Y[Aib]QGTFTSD[4Pal]SQ[αMeL]LDKK([dE-γGlu-C18 diacid])AQ[αMe4Pal]AFIEYLIAGGPSSGAPPPSGEEE-NH2 [Example 1088]
5.77
